experimental protocol: pKa values of the azo dyes
Format: physicochemical
condition label: azo dye
quantity: pKa

# chemical string, recorded number
records = [
    ("CSc1nsc(/N=N/c2ccc(O)c(Cl)c2)n1", 6),
    ("NS(=O)(=O)c1ccc2nsc(/N=N/c3ccc(O)c(Cl)c3)c2c1", 6),
    ("Cn1nccc1/N=N/c1ccc(O)c(Cl)c1", 7.5),
]
